The following compounds are listed with their measured MIC50 values.
- System: Mycobacterium tuberculosis
- test.details: Antimycobacterial activity against high-grade isoniazid, rifampicin, ethambutol and pyrazinamide resistant Mycobacterium tuberculosis clinical isolate harboring mutations in inhA, katG, rpoB H526D, eis genes incubated for 1 week by resazurin dye based fluorescence analysis
- Format: functional
- protocol.conditions: time 1 weeks

[
  {
    "smiles.repr": "CS(=O)(=O)NC[C@H]1CN(c2ccc(N3CCOCC3)c(F)c2)C(=O)O1",
    "assayed.system": "Mycobacterium tuberculosis",
    "display.unit": "µM",
    "qualifier.sign": "=",
    "MIC50": 8.83
  },
  {
    "smiles.repr": "CC(=O)NC[C@H]1CN(c2ccc(N3CCOCC3)c(F)c2)C(=O)O1",
    "assayed.system": "Mycobacterium tuberculosis",
    "display.unit": "µM",
    "qualifier.sign": "=",
    "MIC50": 0.81
  },
  {
    "smiles.repr": "O=C(NC[C@H]1CN(c2ccc(N3CCOCC3)c(F)c2)C(=O)O1)C1CC1",
    "assayed.system": "Mycobacterium tuberculosis",
    "display.unit": "µM",
    "qualifier.sign": "=",
    "MIC50": 1.99
  },
  {
    "smiles.repr": "CO[C@H]1/C=C/O[C@@]2(C)Oc3c(C)c(O)c4c(O)c(c(/C=N/N5CCN(C)CC5)c(O)c4c3C2=O)NC(=O)/C(C)=C\\C=C\\[C@H](C)[C@H](O)[C@@H](C)[C@@H](O)[C@@H](C)[C@H](OC(C)=O)[C@@H]1C",
    "assayed.system": "Mycobacterium tuberculosis",
    "display.unit": "µM",
    "qualifier.sign": ">",
    "MIC50": 100
  },
  {
    "smiles.repr": "O=C(NC[C@H]1CN(c2ccc(N3CCOCC3)c(F)c2)C(=O)O1)c1cccs1",
    "assayed.system": "Mycobacterium tuberculosis",
    "display.unit": "µM",
    "qualifier.sign": "=",
    "MIC50": 5.01
  },
  {
    "smiles.repr": "NNC(=O)c1ccncc1",
    "assayed.system": "Mycobacterium tuberculosis",
    "display.unit": "µM",
    "qualifier.sign": ">",
    "MIC50": 100
  },
  {
    "smiles.repr": "O=C1O[C@@H](CNS(=O)(=O)c2cccs2)CN1c1ccc(N2CCOCC2)c(F)c1",
    "assayed.system": "Mycobacterium tuberculosis",
    "display.unit": "µM",
    "qualifier.sign": "=",
    "MIC50": 7.01
  },
  {
    "smiles.repr": "CCS(=O)(=O)NC[C@H]1CN(c2ccc(N3CCOCC3)c(F)c2)C(=O)O1",
    "assayed.system": "Mycobacterium tuberculosis",
    "display.unit": "µM",
    "qualifier.sign": "=",
    "MIC50": 0.92
  }
]
